- Test Description: Tanguay_ZF_120hpf_BRAI_legacy: (Legacy) Oregon State University Tanguay Lab 120 Hour Post-fertilization zebrafish Assay for Brain Malformation (AID 2283641)
Inconclusive results are not listed. Activity calls are given as the source filed them. The calls were made as follows: active = hit-call score of the fitted dose curve at least 0.9, where 1 is the maximum; inconclusive = response in the unintended direction; inactive = score below 0.9.
# valid calls are active, inactive; nothing else

Worked examples, 3 molecules total:
# Molecule, Answer Label
measured = [
    ("CN1C(=O)CC[C@H]1c1cccnc1", "inactive"),
    ("CC(C)(O)c1ccc(CNC(=O)c2cccnc2Oc2ccc3nonc3c2)cc1", "inactive"),
    ("O=C(O)Cc1cc(I)c(Oc2ccc(O)c(I)c2)c(I)c1", "inactive"),
]

Could you check what this test reported for `O=C=NCCCCCCN=C=O` ?
inactive

Could you check what this test reported for `CCCCCCCCCCCCO` ?
inactive

Could you check what this test reported for `NC(=O)c1nc(-c2cccc(-c3cc(F)ccc3OCC(F)(F)C(F)(F)F)c2)n[nH]1` ?
active

Could you check what this test reported for `CCCCCCCCN(C)CCCCCCCC` ?
inactive

Could you check what this test reported for `COc1ccc2cc(S(=O)(=O)N[C@H](CC(=O)N[C@H](Cc3ccc(CN4[C@H](C)CCC[C@@H]4C)cc3)C(=O)N(C)C(C)C)c3ccc4c(c3)OCO4)ccc2c1` ?
inactive

Could you check what this test reported for `O=CCCCC=O` ?
inactive

Could you check what this test reported for `O=C1O[C@H]([C@@H](O)CO)C(O)=C1O` ?
inactive

Could you check what this test reported for `CC1=CC(=O)/C(=C(/C)O)C(=O)O1` ?
inactive

Could you check what this test reported for `O=c1c(-c2ccc(O)cc2)coc2cc(O)cc(O)c12` ?
inactive

Could you check what this test reported for `CCCCCCCCOC(=O)c1cc(O)c(O)c(O)c1` ?
inactive

Could you check what this test reported for `CC[C@@H]1C[C@H](N(Cc2cc(C(F)(F)F)cc(C(F)(F)F)c2)C(C)=O)c2cc(C(F)(F)F)ccc2N1C(=O)OC(C)C` ?
inactive

Could you check what this test reported for `CCO[Si](CCCNC(N)=O)(OCC)OCC` ?
inactive

Could you check what this test reported for `CCCCOC(=O)c1ccc(O)cc1` ?
active

Could you check what this test reported for `CCOC(=O)O[C@H](C)OC(=O)c1ccc2c(c1)cc(C(=O)NC1CCN(C(C)C)CC1)n2Cc1cc(-c2ccc(Cl)s2)on1` ?
inactive

Could you check what this test reported for `COc1cc(C(=O)NC2CCN(C)CC2)ccc1Nc1ncc2c(n1)N(C1CCCC1)CC(F)(F)C(=O)N2C` ?
active

Could you check what this test reported for `NCc1cccc(C2CCN(C(=O)c3ccc(C#Cc4ccccc4F)o3)CC2)c1` ?
inactive

Could you check what this test reported for `CCCCCCCCCCCC[N+](C)(C)C` ?
inactive

Could you check what this test reported for `O=c1[nH]sc2ccccc12` ?
inactive

Could you check what this test reported for `CCCCCCCCCC(=O)O` ?
inactive

Could you check what this test reported for CN1C(=O)N(c2ccccc2Br)Cc2cnc(Nc3ccc4c(c3)OCC(CO)O4)nc21 (stereo not given) ?
inactive

Could you check what this test reported for `Cc1ncc(CO)c(CO)c1O` ?
inactive

Could you check what this test reported for `Cc1cccc2ccccc12` ?
inactive

###

- Target Under Test: human Serotonin, 5-Hydroxytryptamine Receptor 5A (5HT5A), HTR5A (gene 3361) (UniProt P47898)
- Sequence (P47898 whole entry, looked up): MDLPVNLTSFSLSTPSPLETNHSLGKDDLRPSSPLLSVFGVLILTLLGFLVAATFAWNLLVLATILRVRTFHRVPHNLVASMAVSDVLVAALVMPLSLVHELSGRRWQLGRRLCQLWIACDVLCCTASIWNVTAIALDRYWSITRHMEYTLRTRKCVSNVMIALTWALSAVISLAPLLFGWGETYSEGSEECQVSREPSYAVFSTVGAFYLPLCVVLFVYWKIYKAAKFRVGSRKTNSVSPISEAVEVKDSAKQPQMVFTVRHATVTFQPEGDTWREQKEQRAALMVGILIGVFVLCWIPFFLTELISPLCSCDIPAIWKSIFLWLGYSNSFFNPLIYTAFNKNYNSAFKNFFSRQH
- Test Description: NVS_GPCR_h5HT5A: NovaScreen (NVS) G Protein-Coupled Receptor Assay for human Serotonin, 5-Hydroxytryptamine Receptor 5A (5HT5A) (AID 2283251)
Inconclusive results are not listed. Activity calls are given as the source filed them. Rule for the calls: active = hit-call score of the fitted dose curve at least 0.9, where 1 is the maximum; inconclusive = response in the unintended direction; inactive = score below 0.9.
# valid calls are Y for active, N for inactive; nothing else

Worked examples, 3 compounds total:
# Molecular String, Answer Label
measured = [
    ("CC/C(=C(/CC)c1ccc(O)cc1)c1ccc(O)cc1", "N"),
    ("O=C(O)Cc1cc(I)c(Oc2ccc(O)c(I)c2)c(I)c1", "N"),
    ("O=c1[nH]sc2ccccc12", "Y"),
]

Could you check what this test reported for `CCCCCCCCOC(=O)c1cc(O)c(O)c(O)c1` ?
Y

Could you check what this test reported for `CC(C)(C)c1csc(-c2cc3cc(OCc4ccccc4CC(=O)O)ccc3o2)n1` ?
N

Could you check what this test reported for `CN(C)c1ccc(C(=C2C=CC(=[N+](C)C)C=C2)c2ccc(N(C)C)cc2)cc1` ?
Y

###

- Read-out: Thyroid Hormone Responsive (THRSP), THRSP (gene 7069)
- Test Description: LTEA_HepaRG_THRSP: Life Technologies and Expression Analysis (LTEA) Assay for Thyroid Hormone Responsive (THRSP) using HepaRG (AID 2283536)
- Condition Label: mRNA level, 48 h; actives raise or lower the signal
Calls of active or inactive are those of the source. Rule for the calls: active = hit-call score of the fitted dose curve at least 0.9, where 1 is the maximum; inactive = score below 0.9.
# valid calls are 1.0 (active), 0.0 (inactive); nothing else

Worked examples, 2 compounds total:
# Molecular String, Answer Label
records = [
    ("CCCCCc1ccc(N)cc1", 0.0),
    ("O=CCCCC=O", 0.0),
]

Kindly review the next compound as well.
Could you check what this test reported for `Cc1ncc(CO)c(CO)c1O` ?
0.0

###

- Test Description: CCTE_Shafer_MEA_acute_cross_correlation_HWHM: CCTE's Neural Acute Assay for Cross Correlation at Half Width at Half Maximum, Shafer Lab (AID 2284026);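 also: spontaneous network firing of rat primary cortical neurons on multiwell microelectrode arrays; percent change per well from pre-dose baseline in spike cross-correlogram half width; hits are a decrease in cross-correlogram half width relative to DMSO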
The source made the active and inactive calls. Rule for the calls: active = hit-call score of the fitted dose curve at least 0.9, where 1 is the maximum; inactive = score below 0.9.
# valid calls are true (1) (active), false (0) (inactive); nothing else

Worked examples, 2 molecules total:
# Molecule, Answer Label
rows = [
    ("O=C(O)c1ccccc1-n1cc(C(=O)O)c(=O)c2cc(Nc3c(F)cc(F)cc3Cl)c(Cl)cc21", "false (0)"),
    ("CC1=CC(=O)/C(=C(/C)O)C(=O)O1", "false (0)"),
]

Could you check what this test reported for `CN1C(=O)CC[C@H]1c1cccnc1` ?
false (0)

Could you check what this test reported for CC(O)CC(C)(C)O (centres undefined) ?
false (0)

###

- Test Description: BSK_KF3CT_SRB: Viability Assessment in the BioMAP Diversity Plus: KF3CT Assay (AID 2283069);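 also: total protein by sulforhodamine B staining as a cytotoxicity measure; read 24 h after compound addition; fitted for both signal gain and loss against DMSO baseline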
- Condition Label: primary human keratinocytes with fibroblasts
Calls of active or inactive are those of the source. How the source made its calls: active means hit-call score of the fitted dose curve at least 0.9, where 1 is the maximum; inactive means score below 0.9.
# valid calls are 1 (active), -1 (inactive); nothing else

Worked examples, 5 molecules total:
# Molecule, Answer Label
rows = [
    ("O=C(Nc1ccc(Cl)cc1)Nc1ccc(Cl)c(Cl)c1", -1),
    ("CC(C)(c1cc(Br)c(O)c(Br)c1)c1cc(Br)c(O)c(Br)c1", 1),
    ("Cc1occc1C(=O)Nc1ccc(C(=O)N2CCC(F)(F)/C(=C\\C(=O)N3CCC(N4CCCCC4)CC3)c3ccccc32)cc1", -1),
    ("COCC(C)OCC(C)OCC(C)O (stereo unspecified)", -1),
    ("CCN(Cc1cccc(S(=O)(=O)O)c1)c1ccc(C(=C2C=CC(=[N+](CC)Cc3cccc(S(=O)(=O)O)c3)C=C2)c2ccccc2S(=O)(=O)[O-])cc1", -1),
]

Could you check what this test reported for `CCCCCCCCOC(=O)c1cc(O)c(O)c(O)c1` ?
1

Could you check what this test reported for `COc1ccc2cc(S(=O)(=O)N[C@H](CC(=O)N[C@H](Cc3ccc(CN4[C@H](C)CCC[C@@H]4C)cc3)C(=O)N(C)C(C)C)c3ccc4c(c3)OCO4)ccc2c1` ?
1

Could you check what this test reported for `Oc1ccc2ccccc2c1` ?
-1

Could you check what this test reported for `O=CCCCC=O` ?
1

Could you check what this test reported for `O=C1O[C@H]([C@@H](O)CO)C(O)=C1O` ?
-1

Could you check what this test reported for `C[C@]12CC[C@@H]3c4ccc(O)cc4CC[C@H]3[C@@H]1CC[C@H]2O` ?
-1

###

- Test Description: STM_H9_OrnithineISnorm_perc: Stemina devTOX quickPredict H9 human embryonic stem cell (hESC)-based Assay for Ornithine (ORN) Metabolite Biomarker, Normalized (AID 2283712);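 also: ornithine released into spent medium during last day measured by mass spectrometry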
The source made the active and inactive calls. Rule for the calls: active = hit-call score of the fitted dose curve at least 0.9, where 1 is the maximum; inactive = score below 0.9.
Endpoint Name: AC50

Example results:
# Molecule, AC50
rows = [
    ("CN(C[C@@H](CC[N+]12CCC(C3CCCCC3)(CC1)CC2)c1ccc(Cl)c(Cl)c1)C(=O)c1cc(C(F)(F)F)cc(C(F)(F)F)c1", "7.48 µM (active)"),
    ("CC(=O)N1CCN(c2ccc(OC[C@H]3CO[C@](Cn4ccnc4)(c4ccc(Cl)cc4Cl)O3)cc2)CC1", "8.18 µM (active)"),
    ("Cc1c2ccccc2c(C)c2c1ccc1ccccc12", "inactive"),
    ("CN1C(=O)N(c2ccccc2Br)Cc2cnc(Nc3ccc4c(c3)OCC(CO)O4)nc21 (stereo not drawn)", "1.42 µM (active)"),
    ("COc1cc(C(=O)NC2CCN(C)CC2)ccc1Nc1ncc2c(n1)N(C1CCCC1)CC(F)(F)C(=O)N2C", "0.0393 µM (active)"),
    ("CC(C)(C)c1cc(/C=C2\\SC(N)=NC2=O)cc(C(C)(C)C)c1O", "inactive"),
    ("OCCO", "inactive"),
    ("CCCCCCCCOC(=O)c1cc(O)c(O)c(O)c1", "2.13 µM (active)"),
    ("CN1C(=O)CC[C@H]1c1cccnc1", "inactive"),
    ("O=C=NCCCCCCN=C=O", "0.0164 µM (active)"),
]

Please go through the list and note AC50 for each molecule.
1. CCCCCCCCCCCC[N+](C)(C)C
2. CO[C@H]1/C=C/O[C@@]2(C)Oc3c(C)c(O)c4c(O)c(c(/C=N/N5CCN(C)CC5)c(O)c4c3C2=O)NC(=O)/C(C)=C\C=C\[C@H](C)[C@H](O)[C@@H](C)[C@@H](O)[C@@H](C)[C@H](OC(C)=O)[C@@H]1C
3. COc1ccc2cc(S(=O)(=O)N[C@H](CC(=O)N[C@H](Cc3ccc(CN4[C@H](C)CCC[C@@H]4C)cc3)C(=O)N(C)C(C)C)c3ccc4c(c3)OCO4)ccc2c1

7.79 µM (active)
inactive
18.4 µM (active)
